Taken from ChEMBL document CHEMBL3407359.

I'd be grateful if you could share measured pIC50 for these entries.
# target or system: UniProt:Q72547
# test protocol: Inhibition of HIV1 reverse transcriptase-associated RNA-dependent DNA polymerase activity after 30 mins
Give bare numbers, as −log10 of the molar value.

O=C1Nc2ccccc2/C1=N/Nc1nc(-c2ccc(Cl)cc2)cs1 :: 4.70

Please state, for each entry, its recorded pIC50.
1. O=C1Nc2ccccc2/C1=N/Nc1nc(-c2ccc(F)cc2)cs1
2. O=C1Nc2ccccc2/C1=N/Nc1nc(-c2ccc(F)cc2F)cs1

4.62
4.73

Please report pIC50 for every entry that follows.
1. O=C1Nc2ccccc2/C1=N/Nc1nc(-c2ccc(O)c(O)c2)cs1
2. O=C1Nc2ccccc2/C1=N/Nc1nc(-c2ccc(Cl)cc2Cl)cs1
3. COc1ccc(-c2csc(N/N=C3\C(=O)Nc4ccccc43)n2)cc1

6.05
4.71
4.59

Give pIC50 for all compounds that follow.
1. O=C1Nc2ccccc2/C1=N/Nc1nc(-c2cccc([N+](=O)[O-])c2)cs1
2. O=C1Nc2ccccc2/C1=N/Nc1nc(-c2ccc(-c3ccccc3)cc2)cs1
3. Cc1ccc(-c2csc(N/N=C3\C(=O)Nc4ccccc43)n2)cc1
4. O=C1Nc2ccccc2/C1=N/Nc1nc(-c2ccc([N+](=O)[O-])cc2)cs1
5. O=C1Nc2ccccc2/C1=N/Nc1nc(-c2ccc(Br)cc2)cs1
6. O=C1Nc2ccccc2/C1=N/Nc1nc(-c2ccccc2)cs1

[4.89, 4.66, 4.35, 4.47, 4.09, 4.15]
